- System Name: T1, EsCas13d, nuclease-dead (Eubacterium siraeum, UniProt B0MS50, R295A;H300A;R849A;H854A)
- T1 sequence: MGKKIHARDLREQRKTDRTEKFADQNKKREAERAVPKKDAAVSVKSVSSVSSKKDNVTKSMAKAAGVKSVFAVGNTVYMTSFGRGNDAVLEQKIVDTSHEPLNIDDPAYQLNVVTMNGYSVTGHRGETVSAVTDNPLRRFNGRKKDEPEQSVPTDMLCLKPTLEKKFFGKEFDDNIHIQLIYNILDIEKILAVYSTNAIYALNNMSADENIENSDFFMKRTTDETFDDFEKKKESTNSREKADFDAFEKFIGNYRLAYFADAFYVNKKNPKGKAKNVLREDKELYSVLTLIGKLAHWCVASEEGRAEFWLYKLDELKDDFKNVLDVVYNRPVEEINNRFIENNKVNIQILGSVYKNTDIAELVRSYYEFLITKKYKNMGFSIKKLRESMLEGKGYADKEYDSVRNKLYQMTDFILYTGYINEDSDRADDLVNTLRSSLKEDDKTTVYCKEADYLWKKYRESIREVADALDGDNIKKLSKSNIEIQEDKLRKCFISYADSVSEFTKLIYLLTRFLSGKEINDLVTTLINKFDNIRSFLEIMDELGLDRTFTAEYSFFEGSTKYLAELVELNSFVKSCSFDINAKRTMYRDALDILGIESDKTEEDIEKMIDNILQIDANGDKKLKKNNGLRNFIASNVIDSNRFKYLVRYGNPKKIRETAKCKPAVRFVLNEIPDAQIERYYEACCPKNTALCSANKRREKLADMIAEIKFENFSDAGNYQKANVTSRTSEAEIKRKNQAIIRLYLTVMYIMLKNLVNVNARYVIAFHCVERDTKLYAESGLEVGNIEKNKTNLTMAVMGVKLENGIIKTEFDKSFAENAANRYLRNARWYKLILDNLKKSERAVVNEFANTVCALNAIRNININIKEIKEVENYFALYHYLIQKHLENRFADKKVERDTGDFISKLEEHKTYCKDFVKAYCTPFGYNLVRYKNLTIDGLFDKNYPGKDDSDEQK
- Test Summary: crRNA (strand 1, pre-loaded); Mg2+; 40 mM Tris-HCl pH 7.5, 150 mM NaCl, 6 mM MgCl2, 1 mM DTT, 0.1% Tween-20, 0.2 mg/ml BSA; 25 C; 10 min per concentration, then washed
- Run Parameters: tags: His6-TwinStrep-SUMO cleaved; N-terminal SNAP kept (SNAP-Surface 488); label: 3' end held by stalled T7 RNA polymerase
Measured Parameter: Kd (nM)

Binder	Readout Number
target 1 C7G,U8A (mixed) RNA 1: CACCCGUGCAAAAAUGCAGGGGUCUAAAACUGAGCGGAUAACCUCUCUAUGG RNA 2: GGGAAUGGAUCCACAUCUACGAAUUCGUACCAUAGAGAGGUUAAGCGCUCACCGAGAUCGGAAGAGCACACGU	7.45
target 1 insC 3' of 13,insU 3' of 13 (mixed) RNA 1: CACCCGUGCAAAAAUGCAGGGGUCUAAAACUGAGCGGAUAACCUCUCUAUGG RNA 2: GGGAAUGGAUCCACAUCUACGAAUUCGUACCAUAGAGAGCUGUUAUCCGCUCACCGAGAUCGGAAGAGCACACGU	8.3
target 1 insG 3' of 11,insA 3' of 10 (mixed) RNA 1: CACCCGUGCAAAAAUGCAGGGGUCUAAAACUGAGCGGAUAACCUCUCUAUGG RNA 2: GGGAAUGGAUCCACAUCUACGAAUUCGUACCAUAGAGAGGUGUAAUCCGCUCACCGAGAUCGGAAGAGCACACGU	21.5
target 1 MT 5'PFS GCC 3'PFS AGC (mixed) RNA 1: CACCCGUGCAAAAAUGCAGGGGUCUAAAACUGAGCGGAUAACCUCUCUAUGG RNA 2: GGGAAUGGAUCCACAUCUACGAAUUCGCCCCAUAGAGAGGUUAUCCGCUCAAGCAGAUCGGAAGAGCACACGU	13.1

Hey, just so you know, these numbers are from paper PMC10786891.
